Numbers sourced from the Deep4Chem optical property database.

Please provide measured fluorescence lifetime for the entries that follow.
Assay Overview: solvent given as SMILES
Settings: in ClC(Cl)Cl
Record the result as number plus unit.

In the examples that follow, each entry is paired with its recorded fluorescence lifetime.
Structure: CC1(C)CC[N+]2=c3c(cc4c(c31)Oc1cc3c(cc1C=4c1ccccc1C(=O)O)C(c1ccccc1C(=O)O)=c1cc4c5c(c1O3)C(C)(C)CC[N+]=5CCC4)CCC2
fluorescence lifetime: 2.41 ns

Structure: C#CCn1c2ccccc2c2cc(/C=C/c3cc(C)c4n3[B-](F)(F)[N+]3=C(C)C=C(C)C3=C4c3ccc(I)cc3)ccc21
fluorescence lifetime: 3.93 ns

Structure: Cc1ccc(-c2cc(-c3ccc(N(C)C)cc3)c3c(N)nc(N4CCCC4)c(C#N)c3n2)cc1
fluorescence lifetime: 11.5 ns

As a next step, examine the compound that follows.
Input line: Answer with reported fluorescence lifetime of O=C1c2ccc3c4ccc5c6c(ccc(c7ccc(c2c37)C(=O)N1c1ccncc1)c64)C(=O)N(c1ccncc1)C5=O
Output line: 3.74 ns

====

Assay Overview: solvent given as SMILES
Settings: in c1cc(-n2c3ccccc3c3ccccc32)cc(-n2c3ccccc3c3ccccc32)c1
Please provide measured log10 fluorescence lifetime for the entries that follow.
Please interpret these as log10 of fluorescence lifetime where fluorescence lifetime is in ns.

In the examples that follow, each entry is paired with its recorded log10 fluorescence lifetime.
Structure: COc1ccc(-c2ccc3c(c2)c2cc(-c4ccc(OC)cc4)ccc2n3-c2ccc(C(=O)c3ccc4sc5ccccc5c4c3)cn2)cc1
Parameter: log10 fluorescence lifetime
Reading: 0.77

Structure: N#Cc1cc(-n2c3ccccc3c3ncccc32)c(-n2c3ccccc3c3ncccc32)cc1C#N
Parameter: log10 fluorescence lifetime
Reading: 1.85

Structure: c1ccc(-c2nnc(-c3ccc(N4c5ccccc5N(c5ccccc5)c5ccccc54)cc3)o2)cc1
Parameter: log10 fluorescence lifetime
Reading: 0.85

Structure: O=S(=O)(c1ccc(N2c3ccccc3N(c3ccccc3)c3ccccc32)cc1)c1ccc(N2c3ccccc3N(c3ccccc3)c3ccccc32)cc1
Parameter: log10 fluorescence lifetime
Reading: 1.00

Structure: c1ccc(-c2nc(-c3ccccc3)nc(-c3ccc(-c4ccc(N5c6ccccc6[Si](c6ccccc6)(c6ccccc6)c6ccccc65)cc4)cc3)n2)cc1
Parameter: log10 fluorescence lifetime
Reading: 0.78

For each entry beneath this line, provide reported log10 fluorescence lifetime.
1. O=C(c1ccc(N2c3ccccc3[Si](c3ccccc3)(c3ccccc3)c3ccccc32)cc1)c1ccc(N2c3ccccc3[Si](c3ccccc3)(c3ccccc3)c3ccccc32)cc1
2. O=c1c2ccccc2n2c3ccccc3c(=O)c3cc(-c4ccccc4)cc1c32

Output line:
[2.13, 0.74]

====

Please provide measured fluorescence lifetime for the entries that follow.
Assay Overview: solvent given as SMILES
Settings: in O=P(c1ccccc1)(c1ccccc1)c1ccc2oc3ccc(P(=O)(c4ccccc4)c4ccccc4)cc3c2c1
One number for each entry, in ns.

In the examples that follow, each entry is paired with its recorded fluorescence lifetime.
Structure: Cc1ccc2c(c1)C1(c3ccccc3-c3ccccc31)c1cc(C)ccc1N2c1ccc(-c2ncccn2)cc1
Parameter: fluorescence lifetime
Unit Of Measurement: ns
Reading: 13

Structure: Cc1ccc2c(c1)C(c1ccccc1)(c1ccccc1)c1cc(C)ccc1N2c1ccc2c(c1)N(c1ccccc1)c1ccccc1B2c1c(C(C)C)cc(C(C)C)cc1C(C)C
Parameter: fluorescence lifetime
Unit Of Measurement: ns
Reading: 8.7

Structure: c1ccc(-c2nc(-c3ccccc3)nc(-c3ccc(-n4c5ccccc5c5cc6c(cc54)c4ccccc4n6-c4ccccc4)cc3)n2)cc1
Parameter: fluorescence lifetime
Unit Of Measurement: ns
Reading: 13.4

Structure: Cc1cccc2c3ccccc3n(-c3ccc(-c4c(-c5ccccc5)c(C#N)c(C#N)c(-c5ccccc5)c4-c4ccc(-n5c6ccccc6c6cccc(C)c65)cc4)cc3)c12
Parameter: fluorescence lifetime
Unit Of Measurement: ns
Reading: 41

Structure: Cc1ccc2c(c1)C1(c3ccccc3Oc3ccccc31)c1cc(C)ccc1N2c1ccc(-c2nc(-c3ccccc3)cc(-c3ccccc3)n2)cc1
Parameter: fluorescence lifetime
Unit Of Measurement: ns
Reading: 11

Structure: Cc1cc(C)c2c(c1)c1cc(C)cc(C)c1n2-c1ccc2c(c1)Sc1cc3c(cc1B2c1c(C(C)C)cc(C(C)C)cc1C(C)C)B(c1c(C(C)C)cc(C(C)C)cc1C(C)C)c1ccccc1S3
Parameter: fluorescence lifetime
Unit Of Measurement: ns
Reading: 2

Structure: Cc1ccc2c(c1)C(c1ccccc1)(c1ccccc1)c1cc(C)ccc1N2c1ccc2c(c1)Oc1ccccc1B2c1c(C(C)C)cc(C(C)C)cc1C(C)C
Parameter: fluorescence lifetime
Unit Of Measurement: ns
Reading: 28

Structure: c1ccc(-c2nc(-c3ccccc3)nc(-c3ccc(-n4c5ccccc5c5ccc6c7ccccc7n(-c7ccccc7)c6c54)cc3)n2)cc1
Parameter: fluorescence lifetime
Unit Of Measurement: ns
Reading: 11.9

Input line: Answer with reported fluorescence lifetime of Cc1nc(-c2ccc(N3c4ccccc4C(c4ccccc4)(c4ccccc4)c4ccccc43)cc2)cc(-c2ccc(N3c4ccccc4C(c4ccccc4)(c4ccccc4)c4ccccc43)cc2)n1
Output line: 11

====

Please provide measured log10 fluorescence lifetime for the entries that follow.
Assay Overview: solvent given as SMILES
Settings: in CC#N
Please interpret these as log10 of fluorescence lifetime where fluorescence lifetime is in ns.

For each entry beneath this line, provide reported log10 fluorescence lifetime.
1. NCc1ccc2ccc3cccc4ccc1c2c34
2. Oc1ccccc1/C=N/c1ccccc1/N=C/c1ccccc1O
3. COC(=O)C(Cc1ccc2oc(-c3ccc(Nc4ccccc4)cc3)nc2c1)NC(=O)OC(C)(C)C (stereo unspecified)
4. O=C1c2ccccc2-c2cnccc21
5. C(/C=C/c1cc2c3c(c1)CCCN3CCC2)=C\c1ccncc1
6. COc1ccc(C2=C3C=CC(C)=[N+]3[B-](F)(F)n3c(C)ccc32)cc1
7. Cn1nc(-c2ccccc2)c2nc3cc(Cl)ccc3nc21
8. Cc1ccc2nc3c(=O)[nH]c(=O)[nH]c3nc2c1

Output line:
[2.37, -2.05, 0.35, 0.83, -0.24, 0.20, 0.89, -0.40]

For each entry beneath this line, provide reported log10 fluorescence lifetime.
1. CCN(CC)c1ccc(-c2nc3cc(C(NC(=O)OC(C)(C)C)C(=O)OC)ccc3o2)c(O)c1 (stereo unspecified)
2. COC(=O)C(NC(=O)OC(C)(C)C)c1ccc2oc(-c3ccc(OC(=O)c4ccccc4)cc3O)nc2c1 (stereo unspecified)
3. COc1ccc(/C=C/C2=CC(/C=C/c3ccc(OC)cc3)=[O+][B-](F)(F)O2)cc1
4. c1ccc(-c2nc3c(c4c2-c2ccccc2CC4)-c2ccccc2CC3)cc1
5. COC(=O)C(NC(=O)OC(C)(C)C)c1ccc2oc(-c3ccc(N(C)C)cc3OC)nc2c1 (stereo unspecified)
6. CC(=O)O[B-]1(OC(C)=O)OC(/C=C/C=C/c2ccccc2)=CC(/C=C/C=C/c2ccccc2)=[O+]1

Output line:
1. -0.17
2. -0.52
3. 0.19
4. 0.14
5. 0.09
6. 0.26

For each entry beneath this line, provide reported log10 fluorescence lifetime.
1. O=C1O[B-]2(OC1=O)OC(c1ccccc1)=CC(c1ccc3ccccc3c1)=[O+]2
2. Cc1ccc2sc3cc(CCC(=O)O)ccc3c(=O)c2c1
3. C(=C\c1ccc2ccccc2c1)/c1ccc(N(c2ccccc2)c2ccccc2)cc1

Output line:
1: 0.73; 2: -1.15; 3: 0.04

For each entry beneath this line, provide reported log10 fluorescence lifetime.
1. COc1c(-c2ccc(N(C)C)cc2)oc2ccccc2c1=O
2. COc1ccc(-c2nc3c(c4c2-c2ccccc2CC4)-c2ccccc2CC3)cc1

Output line:
1: 0.43; 2: 0.16

For each entry beneath this line, provide reported log10 fluorescence lifetime.
1. O=S1c2ccccc2-c2cc(-c3c4ccccc4cc4ccccc34)ccc21 (stereo unspecified)
2. CC1=CC(c2ccc3cc(N(C)C)ccc3c2)=[O+][B-](F)(F)O1

Output line:
1: 0.54; 2: 0.01

====

Assay Overview: solvent given as SMILES
Settings: in CCO
Recorded fluorescence lifetime split into classes lo (below 1 ns), med (1 ns to below 4 ns), hi (4 ns or more)

Input line: // return the class label for N#Cc1ccc2cc[nH]c2c1
Output line: med

Input line: // return the class label for COc1ccc(-c2nc(C(C)=O)c(C)o2)cc1
Output line: med

====

Assay Overview: solvent given as SMILES
Settings: in CC(C)CC(C)(C)C
Parameter: fluorescence lifetime (ns)
Numbers only, in ns.

In the examples that follow, each entry is paired with its recorded fluorescence lifetime.
Compound: COC(=O)C(Cc1ccc2oc(-c3ccc(Nc4ccccc4)cc3)nc2c1)NC(=O)OC(C)(C)C (stereo unspecified)
Reading: 1.01
--
Compound: CN(C)c1ccc(C#Cc2ccccc2)cc1
Reading: 0.35
--
Compound: COC(=O)C(Cc1ccc2oc(-c3ccc(N(C)C)cc3)nc2c1)NC(=O)OC(C)(C)C (stereo unspecified)
Reading: 1.02

For each entry beneath this line, provide reported fluorescence lifetime.
1. COC(=O)C(Cc1ccc2oc(-c3ccc4c(c3)c3ccccc3n4-c3ccccc3)nc2c1)NC(=O)OC(C)(C)C (stereo unspecified)
2. COC(=O)C(Cc1ccc2oc(-c3ccc(N(C)c4ccccc4)cc3)nc2c1)NC(=O)OC(C)(C)C (stereo unspecified)
3. CC1=C(C(C)(C)C)C(C)=[N+]2C1=C(C)c1c(C)c(C(C)(C)C)c(C)n1[B-]2(F)F

Output line:
1. 2.22
2. 1.7
3. 4.43
